kinase still bound, per cent of control reference
# Target Of Assay: IRAK4 (human)
# Method: KINOMEscan competition binding
# Assay Conditions: compound 10.0 µM
Please state the figure in %; there is no need to write the unit.

Example entries and their recorded answers appear below.
Smi: CN(C)C/C=C/C(=O)Nc1cccc(Nc2ncc3c(n2)N(C)c2ccccc2C(=O)N3C)c1
Measurement Units: %
kinase still bound, per cent of control: 73
//
Smi: Cc1cc([C@@H](C)Nc2ccccc2C(=O)O)c2nc(N3CCOCC3)cc(=O)n2c1
Measurement Units: %
kinase still bound, per cent of control: 100
//
Smi: CCN1CCN(Cc2ccc(Nc3ncc4c(n3)N(C)c3ccccc3C(=O)N4C)cc2C(F)(F)F)CC1
Measurement Units: %
kinase still bound, per cent of control: 100
//
Smi: COc1cc(N2CCN(C)CC2)ccc1Nc1nc(N)c(C(=O)c2c(Cl)cccc2Cl)s1
Measurement Units: %
kinase still bound, per cent of control: 96
//
Smi: O=C1Nc2ccc(I)cc2/C1=C/c1cc(Br)c(O)c(Br)c1
Measurement Units: %
kinase still bound, per cent of control: 90

Memo: N#Cc1c(NC(=O)c2cccc3ccccc23)sc2c1CCCC2 , reported kinase still bound, per cent of control: 100

Memo: O=C(O)c1ccc(Nc2ncc3c(n2)-c2ccc(Cl)cc2C(c2c(F)cccc2F)=NC3)cc1 , reported kinase still bound, per cent of control: 100

Memo: O=C(NC1CC1)c1cccc(-c2ccc3c(NC(=O)C4CC4)n[nH]c3c2)c1 , reported kinase still bound, per cent of control: 88

Memo: C[C@@H](Oc1cc(-n2cnc3ccc(CN4CCN(C)CC4)cc32)sc1C(N)=O)c1ccccc1C(F)(F)F , reported kinase still bound, per cent of control: 43

---

kinase still bound, per cent of control reference
# Target Of Assay: DDR1 (human) (UniProt Q08345)
# Sequence (Q08345 whole entry, looked up): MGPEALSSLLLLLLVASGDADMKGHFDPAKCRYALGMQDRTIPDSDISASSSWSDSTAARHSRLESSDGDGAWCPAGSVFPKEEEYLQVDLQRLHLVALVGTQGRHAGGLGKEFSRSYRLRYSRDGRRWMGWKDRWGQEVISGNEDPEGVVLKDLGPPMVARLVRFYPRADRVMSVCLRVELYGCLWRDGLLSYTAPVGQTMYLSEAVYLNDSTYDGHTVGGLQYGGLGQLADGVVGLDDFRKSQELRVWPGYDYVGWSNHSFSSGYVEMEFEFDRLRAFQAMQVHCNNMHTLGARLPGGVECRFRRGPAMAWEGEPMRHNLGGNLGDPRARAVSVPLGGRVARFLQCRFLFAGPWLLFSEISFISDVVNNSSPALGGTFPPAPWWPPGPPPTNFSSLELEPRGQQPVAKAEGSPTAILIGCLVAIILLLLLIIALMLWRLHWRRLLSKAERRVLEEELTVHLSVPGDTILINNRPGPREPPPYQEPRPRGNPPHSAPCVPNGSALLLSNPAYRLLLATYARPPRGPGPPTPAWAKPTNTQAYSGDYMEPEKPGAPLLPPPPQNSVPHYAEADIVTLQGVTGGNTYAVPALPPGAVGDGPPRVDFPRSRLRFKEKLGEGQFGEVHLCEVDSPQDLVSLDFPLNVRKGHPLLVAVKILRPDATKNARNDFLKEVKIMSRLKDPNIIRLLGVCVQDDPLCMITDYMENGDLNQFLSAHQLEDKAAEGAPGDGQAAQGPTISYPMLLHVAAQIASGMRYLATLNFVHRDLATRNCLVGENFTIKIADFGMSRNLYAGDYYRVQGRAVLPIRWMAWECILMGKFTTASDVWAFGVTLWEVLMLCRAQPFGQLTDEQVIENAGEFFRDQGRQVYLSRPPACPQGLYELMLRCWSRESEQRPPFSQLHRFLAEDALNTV
# Method: KINOMEscan competition binding
# Assay Conditions: compound 10.0 µM
Please state the figure in %; there is no need to write the unit.

Memo: Cc1ccc(NC(=O)c2cccc(C(C)(C)C#N)c2)cc1Nc1ccc2ncn(C)c(=O)c2c1 , reported kinase still bound, per cent of control: 0

Memo: Nc1ccc(-c2ccc3ncc4ccc(=O)n(-c5cccc(C(F)(F)F)c5)c4c3c2)cn1 , reported kinase still bound, per cent of control: 100

Memo: OCCCNc1cc(-c2ccnc(Nc3cccc(Cl)c3)n2)ccn1 , reported kinase still bound, per cent of control: 100

---

# Target Of Assay: MAPK4 (human) (UniProt P31152)
# Sequence (P31152 whole entry, looked up): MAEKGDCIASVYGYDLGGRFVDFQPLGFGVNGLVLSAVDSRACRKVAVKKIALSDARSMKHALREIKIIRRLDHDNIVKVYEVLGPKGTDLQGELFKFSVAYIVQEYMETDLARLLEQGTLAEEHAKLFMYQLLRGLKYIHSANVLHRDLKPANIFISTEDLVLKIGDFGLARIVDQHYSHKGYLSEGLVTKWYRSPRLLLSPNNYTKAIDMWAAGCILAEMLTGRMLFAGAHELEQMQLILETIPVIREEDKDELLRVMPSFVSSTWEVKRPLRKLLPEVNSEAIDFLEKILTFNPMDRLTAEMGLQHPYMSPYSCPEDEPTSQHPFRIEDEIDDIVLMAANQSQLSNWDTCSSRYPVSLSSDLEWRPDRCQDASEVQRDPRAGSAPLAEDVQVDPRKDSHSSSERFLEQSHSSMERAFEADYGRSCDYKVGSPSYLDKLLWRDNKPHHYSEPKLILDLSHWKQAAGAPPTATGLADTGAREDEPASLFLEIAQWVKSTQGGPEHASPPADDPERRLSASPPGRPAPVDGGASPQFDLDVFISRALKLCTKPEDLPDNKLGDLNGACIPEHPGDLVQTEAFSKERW
# Method: KINOMEscan competition binding
# Assay Conditions: compound 10.0 µM
Quantity Measured: kinase still bound, per cent of control
# output: numeric value plus its unit

Example entries and their recorded answers appear below.
Molecule: CN(C)C/C=C/C(=O)Nc1cccc(Nc2ncc3c(n2)N(C)c2ccccc2C(=O)N3C)c1
Assay Result: 100%
--
Molecule: N#Cc1c(NC(=O)c2cccc3ccccc23)sc2c1CCCC2
Assay Result: 90%
--
Molecule: Cn1c(=O)n(-c2ccc(C(C)(C)C#N)cc2)c2c3cc(-c4cnc5ccccc5c4)ccc3ncc21
Assay Result: 100%
--
Molecule: COc1cc(N2CCN(C)CC2)ccc1Nc1nc(N)c(C(=O)c2c(Cl)cccc2Cl)s1
Assay Result: 90%
--
Molecule: O=C(NOC[C@H](O)CO)c1ccc(F)c(F)c1Nc1ccc(I)cc1F
Assay Result: 77%
--
Molecule: O=C(NC1CC1)c1cccc(-c2ccc3c(NC(=O)C4CC4)n[nH]c3c2)c1
Assay Result: 100%
--
Molecule: COc1cc(C(=O)NC2CCN(C)CC2)ccc1Nc1ncc2c(n1)N(C1CCCC1)C(C)CC(=O)N2C (centres undefined)
Assay Result: 100%
--
Molecule: Nc1ccc(-c2ccc3ncc4ccc(=O)n(-c5cccc(C(F)(F)F)c5)c4c3c2)cn1
Assay Result: 75%
--
Molecule: OCCCNc1cc(-c2ccnc(Nc3cccc(Cl)c3)n2)ccn1
Assay Result: 100%
--
Molecule: Cc1cc([C@@H](C)Nc2ccccc2C(=O)O)c2nc(N3CCOCC3)cc(=O)n2c1
Assay Result: 98%

Memo: C[C@@H](Oc1cc(-n2cnc3ccc(CN4CCN(C)CC4)cc32)sc1C(N)=O)c1ccccc1C(F)(F)F , reported kinase still bound, per cent of control: 100%

Memo: CCOc1cc2ncc(C#N)c(Nc3ccc(OCc4ccccn4)c(Cl)c3)c2cc1NC(=O)/C=C/CN(C)C , reported kinase still bound, per cent of control: 100%

Memo: Cc1ccc2nc(NCCN)c3ncc(C)n3c2c1 , reported kinase still bound, per cent of control: 89%

Memo: O=C(O)c1ccc(Nc2ncc3c(n2)-c2ccc(Cl)cc2C(c2c(F)cccc2F)=NC3)cc1 , reported kinase still bound, per cent of control: 66%

Memo: C=CC(=O)Nc1cc(NC(=O)c2ccc(C)c(NC(=O)c3ccno3)c2)cc(C(F)(F)F)c1 , reported kinase still bound, per cent of control: 100%

Memo: CCN1CCN(Cc2ccc(Nc3ncc4c(n3)N(C)c3ccccc3C(=O)N4C)cc2C(F)(F)F)CC1 , reported kinase still bound, per cent of control: 100%

Memo: C=CC(=O)Nc1cccc(Oc2nc(Nc3ccc(N4CCN(C)CC4)cc3OC)ncc2Cl)c1 , reported kinase still bound, per cent of control: 100%

Memo: CC[C@@H]1C(=O)N(C)c2cnc(Nc3ccc(C(=O)NC4CCN(C)CC4)cc3OC)nc2N1C1CCCC1 , reported kinase still bound, per cent of control: 100%

Memo: CCCS(=O)(=O)Nc1ccc(F)c(C(=O)c2c[nH]c3ncc(-c4ccc(Cl)cc4)cc23)c1F , reported kinase still bound, per cent of control: 100%

---

# Test system: KIT (human), P10721 [V559D/T670I]
# Sequence (P10721 whole entry V559D/T670I, looked up): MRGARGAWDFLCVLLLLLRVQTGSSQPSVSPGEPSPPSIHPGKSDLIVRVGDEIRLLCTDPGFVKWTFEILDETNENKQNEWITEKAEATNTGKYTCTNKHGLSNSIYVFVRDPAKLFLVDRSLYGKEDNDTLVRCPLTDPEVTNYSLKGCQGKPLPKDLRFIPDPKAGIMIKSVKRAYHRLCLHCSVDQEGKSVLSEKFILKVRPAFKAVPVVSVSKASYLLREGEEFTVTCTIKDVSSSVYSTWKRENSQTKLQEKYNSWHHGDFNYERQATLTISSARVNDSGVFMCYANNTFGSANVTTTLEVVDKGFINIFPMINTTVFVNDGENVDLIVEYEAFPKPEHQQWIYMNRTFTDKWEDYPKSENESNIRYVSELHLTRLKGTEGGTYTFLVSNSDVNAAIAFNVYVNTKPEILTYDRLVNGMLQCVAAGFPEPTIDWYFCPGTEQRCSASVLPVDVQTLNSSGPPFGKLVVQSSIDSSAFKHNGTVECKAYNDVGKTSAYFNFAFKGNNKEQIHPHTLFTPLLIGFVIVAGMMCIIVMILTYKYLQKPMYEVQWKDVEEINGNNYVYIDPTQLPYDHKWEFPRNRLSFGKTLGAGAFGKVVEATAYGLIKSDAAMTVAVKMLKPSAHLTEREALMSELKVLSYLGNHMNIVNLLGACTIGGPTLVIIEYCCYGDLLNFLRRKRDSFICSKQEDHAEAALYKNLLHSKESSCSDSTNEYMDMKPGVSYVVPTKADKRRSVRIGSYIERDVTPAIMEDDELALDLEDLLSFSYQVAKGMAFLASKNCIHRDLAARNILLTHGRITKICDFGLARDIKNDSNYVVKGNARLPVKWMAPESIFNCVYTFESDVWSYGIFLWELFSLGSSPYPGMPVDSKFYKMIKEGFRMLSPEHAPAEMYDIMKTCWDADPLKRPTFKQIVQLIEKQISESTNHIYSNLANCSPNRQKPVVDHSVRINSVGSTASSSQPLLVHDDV
# Method: KINOMEscan competition binding
# Assay Conditions: compound 10.0 µM
Response field label: string, one of label 1 (kinase still bound, per cent of control strictly below 90%) or label 0.

Some solved cases for reference:
Smi: O=C(Nc1cccc(Nc2ncc(Br)c(NCCc3cnc[nH]3)n2)c1)N1CCCC1
Assigned Category: label 1
//
Smi: Cc1ccc(C(=O)Nc2cccc(C(F)(F)F)c2)cc1Nc1cncc(C(N)=O)c1
Assigned Category: label 0
//
Smi: Cc1cn(-c2cc(C(=O)Nc3ccc(C)c(NC(=O)c4ccno4)c3)cc(C(F)(F)F)c2)cn1
Assigned Category: label 0
//
Smi: CCN1CCN(Cc2ccc(Nc3ncc4c(n3)N(C)c3ccccc3C(=O)N4C)cc2C(F)(F)F)CC1
Assigned Category: label 1
//
Smi: COc1cc(N2CCN(C)CC2)ccc1Nc1ncc2c(n1)N(C)c1ccccc1C(=O)N2C
Assigned Category: label 0

Prompt: Quick check: does COc1cc2c(Nc3ccc(NC(=O)c4ccccc4)cc3)ncnc2cc1OCCCN1CCOCC1 have kinase still bound, per cent of control under 90%?
Completion: label 1

Prompt: Quick check: does Nc1ccc(-c2ccc3ncc4ccc(=O)n(-c5cccc(C(F)(F)F)c5)c4c3c2)cn1 have kinase still bound, per cent of control under 90%?
Completion: label 1

Prompt: Quick check: does CCN1CCN(C(=O)Cc2ccc(Nc3ncc(F)c(Nc4ccc(C(=O)Nc5ccccc5Cl)cc4)n3)cc2)CC1 have kinase still bound, per cent of control under 90%?
Completion: label 1

---

# Target Of Assay: MAP4K4 (human)
# Method: KINOMEscan competition binding
# Assay Conditions: compound 10.0 µM
kinase still bound, per cent of control reference
Please state the figure in %; there is no need to write the unit.

Molecule: OCCCNc1cc(-c2ccnc(Nc3cccc(Cl)c3)n2)ccn1
Target Of Assay: MAP4K4 (human)
Measurement Units: %
kinase still bound, per cent of control: 100

Molecule: C=CC(=O)Nc1cccc(Oc2nc(Nc3ccc(N4CCN(C)CC4)cc3OC)ncc2Cl)c1
Target Of Assay: MAP4K4 (human)
Measurement Units: %
kinase still bound, per cent of control: 100

Molecule: O=C(NC1CC1)c1cccc(-c2ccc3c(NC(=O)C4CC4)n[nH]c3c2)c1
Target Of Assay: MAP4K4 (human)
Measurement Units: %
kinase still bound, per cent of control: 84

Molecule: CCCS(=O)(=O)Nc1ccc(F)c(C(=O)c2c[nH]c3ncc(-c4ccc(Cl)cc4)cc23)c1F
Target Of Assay: MAP4K4 (human)
Measurement Units: %
kinase still bound, per cent of control: 48

Molecule: CCC(=O)N1CCN(c2ccc(-n3c(=O)ccc4cnc5ccc(-c6cnc7ccccc7c6)cc5c43)cc2C(F)(F)F)CC1
Target Of Assay: MAP4K4 (human)
Measurement Units: %
kinase still bound, per cent of control: 5.2

Molecule: C[C@@H](Oc1cc(-n2cnc3ccc(CN4CCN(C)CC4)cc32)sc1C(N)=O)c1ccccc1C(F)(F)F
Target Of Assay: MAP4K4 (human)
Measurement Units: %
kinase still bound, per cent of control: 64

Molecule: Cc1ccc2nc(NCCN)c3ncc(C)n3c2c1
Target Of Assay: MAP4K4 (human)
Measurement Units: %
kinase still bound, per cent of control: 100

Molecule: COc1cc(C(=O)NC2CCN(C)CC2)ccc1Nc1ncc2c(n1)N(C1CCCC1)C(C)CC(=O)N2C (centres undefined)
Target Of Assay: MAP4K4 (human)
Measurement Units: %
kinase still bound, per cent of control: 100

Molecule: CN(C)C/C=C/C(=O)Nc1cccc(Nc2ncc3c(n2)N(C)c2ccccc2C(=O)N3C)c1
Target Of Assay: MAP4K4 (human)
Measurement Units: %
kinase still bound, per cent of control: 50

Molecule: Cc1ccc(C(=O)Nc2cccc(C(F)(F)F)c2)cc1Nc1cncc(C(N)=O)c1
Target Of Assay: MAP4K4 (human)
Measurement Units: %
kinase still bound, per cent of control: 100

The measured kinase still bound, per cent of control that O=C1Nc2ccc(I)cc2/C1=C/c1cc(Br)c(O)c(Br)c1 showed for MAP4K4 (human) is 4.2

The measured kinase still bound, per cent of control that N#Cc1c(NC(=O)c2cccc3ccccc23)sc2c1CCCC2 showed for MAP4K4 (human) is 66

The measured kinase still bound, per cent of control that O=C(O)c1ccc(Nc2ncc3c(n2)-c2ccc(Cl)cc2C(c2c(F)cccc2F)=NC3)cc1 showed for MAP4K4 (human) is 86

The measured kinase still bound, per cent of control that CCOc1cc2ncc(C#N)c(Nc3ccc(OCc4ccccn4)c(Cl)c3)c2cc1NC(=O)/C=C/CN(C)C showed for MAP4K4 (human) is 6.2

The measured kinase still bound, per cent of control that Cn1c(=O)n(-c2ccc(C(C)(C)C#N)cc2)c2c3cc(-c4cnc5ccccc5c4)ccc3ncc21 showed for MAP4K4 (human) is 100
